B1: FBXO3 (parent)
chain: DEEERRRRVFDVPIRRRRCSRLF

variants of: B1; experiment: protein stability index of a GFP-peptide fusion (GPS, HEK-293T) (PSI 1-6); higher = more stable; details: c terminus: native;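 note: lentivirally expressed fusions sorted by FACS into six bins by GFP to DsRed ratio, PSI derived from sequencing read proportions per bin multiplied by bin number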
I'd appreciate it if you could supply protein stability index values for the items below.
Could you keep your reply to the number by itself?

What value of protein stability index has been reported for the following variant? `P13K`
2.9

What value of protein stability index has been reported for the following variant? `R17E`
2.27

What value of protein stability index has been reported for the following variant? `V9D`
4.46

What value of protein stability index has been reported for the following variant? `V12P`
2.98

What value of protein stability index has been reported for the following variant? `R16G`
3.45

What value of protein stability index has been reported for the following variant? `I14C`
2.38

What value of protein stability index has been reported for the following variant? `R8W`
2.4

What value of protein stability index has been reported for the following variant? `D11M`
2.08

What value of protein stability index has been reported for the following variant? `S20L`
2.36

What value of protein stability index has been reported for the following variant? `V12A`
3.05

What value of protein stability index has been reported for the following variant? `F23T`
2.4

What value of protein stability index has been reported for the following variant? `R21W`
2.53

What value of protein stability index has been reported for the following variant? `D1Y`
2.57

What value of protein stability index has been reported for the following variant? `C19M`
3.23

What value of protein stability index has been reported for the following variant? `E4A`
1.98

What value of protein stability index has been reported for the following variant? `C19S`
4.15

What value of protein stability index has been reported for the following variant? `V9Q`
3.45

What value of protein stability index has been reported for the following variant? `E4G`
2.48

What value of protein stability index has been reported for the following variant? `D11C`
1.53

What value of protein stability index has been reported for the following variant? `R17H`
2.21

What value of protein stability index has been reported for the following variant? `C19L`
3.54

What value of protein stability index has been reported for the following variant? `R15P`
2.56

What value of protein stability index has been reported for the following variant? `E4Q`
2.72

What value of protein stability index has been reported for the following variant? `R15C`
2.99

What value of protein stability index has been reported for the following variant? `V9G`
3.87

What value of protein stability index has been reported for the following variant? `L22V`
2.12

What value of protein stability index has been reported for the following variant? `V9R`
2.71

What value of protein stability index has been reported for the following variant? `V12M`
2.47

What value of protein stability index has been reported for the following variant? `R16P`
3.45

What value of protein stability index has been reported for the following variant? `V9K`
3.72

What value of protein stability index has been reported for the following variant? `L22C`
2.71

What value of protein stability index has been reported for the following variant? `C19P`
2.56

What value of protein stability index has been reported for the following variant? `R16W`
1.99

What value of protein stability index has been reported for the following variant? `R5A`
3.9

What value of protein stability index has been reported for the following variant? `I14P`
3.4

What value of protein stability index has been reported for the following variant? `I14R`
3.33

What value of protein stability index has been reported for the following variant? `S20I`
2.05
